Hey, just so you know, these numbers are from paper PMC7943553.

Biological target: T1, P. vivax Reticulocyte Binding Protein 2b, residues 161–1454 (P. vivax strain Salvador I, UniProt A5K736 161-1454, DyLight 488 (NHS ester) in the FRET assay; biotin (BirA site) in the competition ELISA between human mAbs)
T1 chain: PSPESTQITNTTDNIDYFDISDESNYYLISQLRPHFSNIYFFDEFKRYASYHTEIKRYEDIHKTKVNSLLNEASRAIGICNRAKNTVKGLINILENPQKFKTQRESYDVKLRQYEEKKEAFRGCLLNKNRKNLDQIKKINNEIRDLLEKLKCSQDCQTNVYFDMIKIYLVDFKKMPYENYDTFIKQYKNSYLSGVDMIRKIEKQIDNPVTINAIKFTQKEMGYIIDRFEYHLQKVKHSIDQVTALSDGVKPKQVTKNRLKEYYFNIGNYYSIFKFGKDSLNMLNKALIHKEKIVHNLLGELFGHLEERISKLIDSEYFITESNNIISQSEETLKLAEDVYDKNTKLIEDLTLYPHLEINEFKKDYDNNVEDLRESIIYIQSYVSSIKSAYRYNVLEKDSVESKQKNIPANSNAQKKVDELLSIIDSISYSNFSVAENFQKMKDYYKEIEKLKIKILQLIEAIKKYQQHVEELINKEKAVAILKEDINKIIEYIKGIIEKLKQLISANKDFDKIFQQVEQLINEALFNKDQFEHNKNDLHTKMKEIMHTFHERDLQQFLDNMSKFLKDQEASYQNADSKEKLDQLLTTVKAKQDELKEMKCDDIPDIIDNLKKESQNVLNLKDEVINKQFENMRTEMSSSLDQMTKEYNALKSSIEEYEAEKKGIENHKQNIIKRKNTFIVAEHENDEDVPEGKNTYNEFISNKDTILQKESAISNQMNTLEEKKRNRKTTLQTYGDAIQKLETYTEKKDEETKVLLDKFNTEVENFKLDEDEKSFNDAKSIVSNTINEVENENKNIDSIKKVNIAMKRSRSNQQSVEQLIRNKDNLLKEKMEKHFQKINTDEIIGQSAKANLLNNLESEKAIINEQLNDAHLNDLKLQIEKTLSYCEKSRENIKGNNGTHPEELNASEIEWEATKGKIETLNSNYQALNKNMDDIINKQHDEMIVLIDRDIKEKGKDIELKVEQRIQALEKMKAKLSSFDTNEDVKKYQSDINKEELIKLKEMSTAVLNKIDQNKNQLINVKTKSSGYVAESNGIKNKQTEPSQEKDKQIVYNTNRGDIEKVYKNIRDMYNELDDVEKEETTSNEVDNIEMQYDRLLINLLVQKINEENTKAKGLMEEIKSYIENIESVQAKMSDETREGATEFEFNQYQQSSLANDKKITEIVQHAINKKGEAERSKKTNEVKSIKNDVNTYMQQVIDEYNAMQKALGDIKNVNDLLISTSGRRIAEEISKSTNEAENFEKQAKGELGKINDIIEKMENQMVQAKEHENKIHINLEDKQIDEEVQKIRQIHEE
Assay: BLI
# maps each entry to its koff
Value expressed in s⁻¹; do not type the unit.

Consider the reported koff for these binders:
| binder | val |
| --- | --- |
| PvRBP2b human mAb 237235 (antibody, V domains shown) VH: QVQLVESGGGVVQPGRSLRLSCAASGFMFNSYGMHWVRQAPGKGLEWMAFISYDGSDDYYGDSVKGRITISRDNSKNTLFLHINSLRTEDTAVYYCAKESNYGENAFDVWGHGTMVTVSS VL: QSALTQPRSVSGSPGQSVTISCTGTSNDVGFYNFVSWYQHHPGKAPKLMIYDVTERPSGVPDRFSGSKSGNTASLTISGLQAEDEAEYYCCSYAGTYTFVFGHGTKVTVL | 3.45e-05 |
| PvRBP2b human mAb 253245 (antibody, V domains shown) VH: EVQLVQSGAEVKKPGSSMKVSCKASGGTFNRYVFSWVRQAPGQGLEWMGGILPILETTYYAKNFKGRVTITADESTSTVYMELSSLTSEDTAVYFCARDEHDYVWGSYRPSLTGPWGQGTLVTVSS VL: QSALTQPPSTSGSPGQSVTISCTGTGIDVGGFSYVSWFQYHPGKAPKLIIFEVTKRPSGVPDRFSGSKSGNTASLTISGLQADDEAEYYCSSYAVNNNFVFGTGTKVTVL | 8.17e-06 |

Consider the binder PvRBP2b human mAb 243244 (antibody, V domains shown) VH: QVQLVESGGGVVQSGKSLRVSCAASGFTFSSYGMHWVRQAPGKGLEWVAFISYDGDNKYSADSVKGRLTISRDNSKNTLYLQMNSLRPEDTAVYYCAKESNYGENAFDIWGQGTMVTVSS VL: QSALTQPRSVSGSPGQSVTISCTGTSSDVGFYNFVSWYQHHPGKAPKLIIYDVSERPSGVPDRFSGSKSGNTASLSISGLQPEDEADYYCCSYAGTYTFVFGSGTKVTVL and give its measured koff.
1.15e-05
